- Experiment description: AUC (0 to t) in patient with end-stage renal disease at 200 mg, po administered as two single doses within 2 hrs of after completion of dialysis separated by 1 week washout period
- Assay type: ADME, organism-based
- Measurement conditions: human, plasma
Experimental readout: AUC(0-t) (ng·h/mL)
Give a bare numeral; the unit ng·h/mL is implied.

# input What AUC(0-t) value was documented for this compound, Cc1cn([C@@H]2C[C@@H](O)[C@H](CO)O2)c(=O)[nH]c1=O ?
# output 41800

====

- Experiment description: Elimination half life in patient with mild renal impairment at 600 mg, po administered as single dose
- Type: ADME, organism-based
- Measurement conditions: human, in vivo, read-out: beta t1/2 (converted)
Experimental readout: half-life (h)
Give a bare numeral; the unit h is implied.

# input What half-life value was documented for this compound, Cc1cn([C@@H]2C[C@@H](O)[C@H](CO)O2)c(=O)[nH]c1=O ?
# output 26.7

====

- Experiment description: Mean cumulative urine excretion level in patient with severe renal impairment at 200 mg, po administered as single dose
- Format: ADME, organism-based
- Measurement conditions: human, read-out: Activity
Experimental readout: dose excreted
Kindly write the number and append the unit.

# input What dose excreted value was documented for this compound, Cc1cn([C@@H]2C[C@@H](O)[C@H](CO)O2)c(=O)[nH]c1=O ?
# output 8%

====

- Experiment description: Cmax in human with normal renal function at 600 mg, po administered as single dose
- Type: ADME, organism-based
- Design: dose 600 mg, route oral
- Measurement conditions: in vivo
Experimental readout: Cmax (ng/mL)
Give a bare numeral; the unit ng/mL is implied.

# input What Cmax value was documented for this molecule, Cc1cn([C@@H]2C[C@@H](O)[C@H](CO)O2)c(=O)[nH]c1=O ?
# output 3400

====

- Experiment description: Oral bioavailability in human with normal renal function
- Type: ADME, organism-based
- Measurement conditions: in vivo
Experimental readout: bioavailability (%)
Give a bare numeral; the unit % is implied.

# input What bioavailability value was documented for this compound, Cc1cn([C@@H]2C[C@@H](O)[C@H](CO)O2)c(=O)[nH]c1=O ?
# output 52

====

- Experiment description: AUC (0 to infinity) in patient with end-stage renal disease at 200 mg, po administered as two single doses within 2 hrs of after completion of dialysis separated by 1 week washout period
- Assay type: ADME, organism-based
- Set-up: dose 200 mg, time infinity, route oral
- Measurement conditions: human, plasma
Experimental readout: AUC(0-inf) (ng·h/mL)
Give a bare numeral; the unit ng·h/mL is implied.

# input What AUC(0-inf) value was documented for this compound, Cc1cn([C@@H]2C[C@@H](O)[C@H](CO)O2)c(=O)[nH]c1=O [TELBIVUDINE] ?
# output 67400

====

- Experiment description: Elimination half life in patient with end-stage renal disease at 200 mg, po administered as two single doses 2 hrs before dialysis separated by 1 week washout period
- Format: ADME, organism-based
- Measurement conditions: human, in vivo, read-out: beta t1/2 (converted)
Experimental readout: half-life
Kindly write the number and append the unit.

# input What half-life value was documented for this molecule, Cc1cn([C@@H]2C[C@@H](O)[C@H](CO)O2)c(=O)[nH]c1=O [TELBIVUDINE] ?
# output 35.2 h

====

- Experiment description: Renal clearance in patient with mild renal impairment at 600 mg, po administered as single dose
- Format: ADME, organism-based, Kidney
- Measurement conditions: human, in vivo, read-out: CL_renal (converted)
Experimental readout: CL renal

# input What CL renal value was documented for this molecule, Cc1cn([C@@H]2C[C@@H](O)[C@H](CO)O2)c(=O)[nH]c1=O ?
# output 83.3 mL/min

====

- Experiment description: Cmax in patient with end-stage renal disease at 200 mg, po administered as two single doses 2 hrs before dialysis separated by 1 week washout period
- Type: ADME, organism-based
- Design: dose 200 mg, route oral
- Measurement conditions: human, in vivo
Experimental readout: Cmax (ng/mL)
Give a bare numeral; the unit ng/mL is implied.

# input What Cmax value was documented for this compound, Cc1cn([C@@H]2C[C@@H](O)[C@H](CO)O2)c(=O)[nH]c1=O ?
# output 1200

====

- Experiment description: Tmax in patient with end-stage renal disease at 200 mg, po administered as two single doses within 2 hrs of after completion of dialysis separated by 1 week washout period
- Format: ADME, organism-based
- Measurement conditions: human, in vivo
Experimental readout: Tmax (h)
Give a bare numeral; the unit h is implied.

# input What Tmax value was documented for this compound, Cc1cn([C@@H]2C[C@@H](O)[C@H](CO)O2)c(=O)[nH]c1=O ?
# output 3.5

====

- Experiment description: Initial decline half life in patient with severe renal impairment at 200 mg, po administered as single dose
- Type: ADME, organism-based
- Measurement conditions: human, in vivo, read-out: alphat1/2 (converted)
Experimental readout: half-life (h)
Give a bare numeral; the unit h is implied.

# input What half-life value was documented for this compound, Cc1cn([C@@H]2C[C@@H](O)[C@H](CO)O2)c(=O)[nH]c1=O [TELBIVUDINE] ?
# output 4.5

====

- Experiment description: AUC (0 to infinity) in patient with mild renal impairment at 600 mg, po administered as single dose
- Type: ADME, organism-based
- Set-up: dose 600 mg, route oral, time infinity
- Measurement conditions: human, plasma
Experimental readout: AUC(0-inf) (ng·h/mL)
Give a bare numeral; the unit ng·h/mL is implied.

# input What AUC(0-inf) value was documented for this compound, Cc1cn([C@@H]2C[C@@H](O)[C@H](CO)O2)c(=O)[nH]c1=O ?
# output 32500

====

- Experiment description: AUC (0 to t) in patient with mild renal impairment at 600 mg, po administered as single dose
- Format: ADME, organism-based
- Measurement conditions: human, plasma
Experimental readout: AUC(0-t) (ng·h/mL)
Give a bare numeral; the unit ng·h/mL is implied.

# input What AUC(0-t) value was documented for this compound, Cc1cn([C@@H]2C[C@@H](O)[C@H](CO)O2)c(=O)[nH]c1=O ?
# output 29200

====

- Experiment description: Tmax in patient with end-stage renal disease at 200 mg, po administered as two single doses 2 hrs before dialysis separated by 1 week washout period
- Type: ADME, organism-based
- Measurement conditions: human, in vivo
Experimental readout: Tmax (h)
Give a bare numeral; the unit h is implied.

# input What Tmax value was documented for this compound, Cc1cn([C@@H]2C[C@@H](O)[C@H](CO)O2)c(=O)[nH]c1=O ?
# output 8

====

- Experiment description: AUC (0 to t) in patient with end-stage renal disease at 200 mg, po disease as two single doses 2 hrs before dialysis separated by 1 week washout period
- Type: ADME, organism-based
- Measurement conditions: human, plasma
Experimental readout: AUC(0-t) (ng·h/mL)
Give a bare numeral; the unit ng·h/mL is implied.

# input What AUC(0-t) value was documented for this compound, Cc1cn([C@@H]2C[C@@H](O)[C@H](CO)O2)c(=O)[nH]c1=O ?
# output 26500

====

- Experiment description: AUC (0 to t) in patient with moderate renal impairment at 400 mg, po administered as single dose
- Assay type: ADME, organism-based
- Measurement conditions: human, plasma
Experimental readout: AUC(0-t) (ng·h/mL)
Give a bare numeral; the unit ng·h/mL is implied.

# input What AUC(0-t) value was documented for this compound, Cc1cn([C@@H]2C[C@@H](O)[C@H](CO)O2)c(=O)[nH]c1=O ?
# output 30100

====

- Experiment description: Tmax in patient with mild renal impairment at 600 mg, po administered as single dose
- Type: ADME, organism-based
- Measurement conditions: human, in vivo
Experimental readout: Tmax (h)
Give a bare numeral; the unit h is implied.

# input What Tmax value was documented for this compound, Cc1cn([C@@H]2C[C@@H](O)[C@H](CO)O2)c(=O)[nH]c1=O ?
# output 4

====

- Experiment description: Tmax in human with normal renal function at 600 mg, po administered as single dose
- Type: ADME, organism-based
- Measurement conditions: in vivo
Experimental readout: Tmax
Kindly write the number and append the unit.

# input What Tmax value was documented for this compound, Cc1cn([C@@H]2C[C@@H](O)[C@H](CO)O2)c(=O)[nH]c1=O ?
# output 4 h

====

- Experiment description: Terminal half life in healthy human at 200 to 800 mg/day administered as single dose
- Format: ADME, organism-based
- Measurement conditions: in vivo, read-out: beta t1/2 (converted)
Experimental readout: half-life (h)
Give a bare numeral; the unit h is implied.

# input What half-life value was documented for this compound, Cc1cn([C@@H]2C[C@@H](O)[C@H](CO)O2)c(=O)[nH]c1=O [TELBIVUDINE] ?
# output 40

====

- Experiment description: Plasma clearance in human with normal renal function
- Format: ADME, organism-based
Experimental readout: clearance (mL/min)
Give a bare numeral; the unit mL/min is implied.

# input What clearance value was documented for this compound, Cc1cn([C@@H]2C[C@@H](O)[C@H](CO)O2)c(=O)[nH]c1=O ?
# output 200
